Values from PubChem BioAssay AID1963965

Overview of reported viability, T/C across a group of molecules:
Tested on: 996289-038-R-J1-PDC spheroid viability;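 further: luminescence used as a proxy for viable cell amount; spheroids exposed to compounds for seven days before viability read; percent viability relative to DMSO vehicle control as 100%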
Assay: Anticancer human tumor 996289-038-R-J1-PDC patient-derived colon adenocarcinoma cell line growth inhibition [PI3K]
Conditions: second compound 0.316 µM; first compound 10 µM; hits give low values; spheroids with HUVEC and MSC

Example molecules with recorded viability, T/C:
molecule: Cn1nccc1Nc1nccc(-c2ccn(C(CO)c3ccc(Cl)c(F)c3)c(=O)c2)n1 (stereo not drawn) + CC(Nc1ncnc2nc[nH]c12)c1cc2cccc(Cl)c2c(=O)n1-c1ccccc1
targetOfAssay: 996289-038-R-J1-PDC spheroid viability;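 further: luminescence used as a proxy for viable cell amount; spheroids exposed to compounds for seven days before viability read; percent viability relative to DMSO vehicle control as 100%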
viability, T/C: 55.6%
--
molecule: Cn1ncc(Cl)c1-c1cc(C(=O)NC(CN)Cc2cccc(F)c2)sc1Cl (stereo not drawn) + CC(Nc1ccc2c(c1)OCCn1cc(N3C(=O)OCC3C(F)F)nc1-2)C(N)=O
targetOfAssay: 996289-038-R-J1-PDC spheroid viability;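 further: luminescence used as a proxy for viable cell amount; spheroids exposed to compounds for seven days before viability read; percent viability relative to DMSO vehicle control as 100%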
viability, T/C: 28.9%

Please turn your attention to the following entry.
Entry CNC(=O)c1ccc(N2C(=S)N(c3ccc(C#N)c(C(F)(F)F)c3)C(=O)C2(C)C)cc1F + Cc1nc(NC(=O)N2CCCC2C(N)=O)sc1-c1ccnc(C(C)(C)C(F)(F)F)c1 , tested on 996289-038-R-J1-PDC spheroid viability, has a reported viability, T/C of 96.5%
